Assay: Cmax in Sprague-Dawley rat administered as hydroxypropyl-beta-cyclodextrin at 20 mg/kg, IG measured for 12 hrs by LC-MS/MS analysis
Type: ADME, organism-based
Conditions: in vivo, po
ASSAY READOUT: Cmax (ng/mL)
Supply the numeric figure in ng/mL, leaving out any unit text.

# get_value(readout='Cmax', item= C=C(C)[C@@H]1CC[C@]2(C(=O)NCCCCCC(=O)OC)CC[C@]3(C)[C@H](CC[C@@H]4[C@@]5(C)CC[C@H](O[C@@H]6OC[C@H](O)[C@H](O)[C@H]6O[C@@H]6O[C@@H](C)[C@H](O)[C@@H](O)[C@H]6O)[C@@](C)(CO)[C@@H]5CC[C@]43C)[C@@H]12 )
57.5
